- Study Target: Metallo-beta-lactamase type 2 (Klebsiella pneumoniae, UniProt C7C422)
- Sequence (C7C422 whole entry): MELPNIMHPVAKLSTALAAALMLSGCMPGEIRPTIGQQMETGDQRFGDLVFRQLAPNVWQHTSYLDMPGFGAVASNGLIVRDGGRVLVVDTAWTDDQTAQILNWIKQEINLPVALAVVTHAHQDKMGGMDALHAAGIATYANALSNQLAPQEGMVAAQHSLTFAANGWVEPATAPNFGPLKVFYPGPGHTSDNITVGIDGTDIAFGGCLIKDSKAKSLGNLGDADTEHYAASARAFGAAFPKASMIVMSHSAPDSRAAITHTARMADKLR
- Assay Overview: Competitive inhibition of NDM-1 (unknown origin) using penicillin G as substrate by Michaelis-Menten equation based kinetic analysis
pKi: −log10 of the molar value.
# pKi >= 5 gives 1, anything below gives -1

Recorded results for 3 molecules are shown here.
smiles_string=N#Cc1c(-c2ccccc2)c(-c2ccccc2)n(Cc2ccccc2)c1/N=C/c1ccccc1 group_label=1
smiles_string=COC(=O)c1ccc(/C=N/c2c(C#N)c(-c3ccccc3)c(-c3ccccc3)n2Cc2ccccc2)cc1 group_label=-1
smiles_string=N#Cc1c(-c2ccccc2)c(-c2ccccc2)n(Cc2ccccc2)c1/N=C/c1ccc(O)cc1 group_label=1

As a next step, examine the molecule that follows.
# bool: pKi of N#Cc1c(-c2ccccc2)c(-c2ccccc2)n(Cc2ccccc2)c1/N=C/c1cccs1 >= 5
1
